Data credit: the supplement of paper PMC5908809

Test system: NK-92 (IL-2 2.5 ng/mL);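 further: normalised to DMSO-only wells as negative and benzethonium chloride as positive control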
Assay Summary: percent inhibition of viability; higher = more inhibition
Protocol Conditions: 72 h; 10000 nM
Kindly state percent inhibition of viability for each of the entries shown.
Answers are plain numbers, in %.

# count of solved cases: 3
# assay system NK-92 (IL-2 2.5 ng/mL): give percent inhibition of viability of CC(C)C[C@H](NC(=O)[C@@H](COC(C)(C)C)NC(=O)[C@H](Cc1ccc(O)cc1)NC(=O)[C@H](CO)NC(=O)[C@H](Cc1c[nH]c2ccccc12)NC(=O)[C@H](Cc1cnc[nH]1)NC(=O)[C@@H]1CCC(=O)N1)C(=O)N[C@@H](CCCNC(=N)N)C(=O)N1CCC[C@H]1C(=O)NNC(N)=O [Goserelin] (max concentration tested 10000 nM);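 further: normalised to DMSO-only wells as negative and benzethonium chloride as positive control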
20.7

Give the observed percent inhibition of viability of NC(=O)c1cccc2cn(-c3ccc([C@@H]4CCCNC4)cc3)nc12 [Niraparib] (max concentration tested 10000 nM) for NK-92 (IL-2 2.5 ng/mL).
92.8

Determine reported percent inhibition of viability for CS(=O)(=O)N1CCc2c(-c3cnc(N)nc3)nc(N3CCOCC3)nc21 (max concentration tested 10000 nM) ; test system: NK-92 (IL-2 2.5 ng/mL).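 Further: normalised to DMSO-only wells as negative and benzethonium chloride as positive control.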
55.8

Now consider a different compound.
Report percent inhibition of viability on NK-92 (IL-2 2.5 ng/mL) for this entry: Nc1ncnc2c1c(COc1cccc(Cl)c1)nn2C1CCOCC1 (max concentration tested 10000 nM)
20.2
